Reference for the values: ChEMBL document CHEMBL2203170

targetDesc: Phosphatidylinositol 4,5-bisphosphate 3-kinase catalytic subunit gamma isoform (Homo sapiens, UniProt P48736)
assay: Inhibition of PI3Kgamma by HTRF assay in presence of ATP
Kindly supply the reported IC50 values for the records listed here.
Write the value in nM as a bare number.

**Q:** Which IC50 is reported for this compound? `Cc1c(OCc2cccnc2)ccc2c(=O)nc(N3CCOCC3)oc12`
**A:** 720

**Q:** What measured IC50 goes with `O=c1nc(N2CCOCC2)oc2c(-c3ccccc3)cccc12` ?
**A:** 1500

----------
Record form. Attribute: IC50. Fill in for each entry.
targetDesc: DNA-dependent protein kinase catalytic subunit (Homo sapiens, UniProt P78527)
Sequence (P78527 whole entry): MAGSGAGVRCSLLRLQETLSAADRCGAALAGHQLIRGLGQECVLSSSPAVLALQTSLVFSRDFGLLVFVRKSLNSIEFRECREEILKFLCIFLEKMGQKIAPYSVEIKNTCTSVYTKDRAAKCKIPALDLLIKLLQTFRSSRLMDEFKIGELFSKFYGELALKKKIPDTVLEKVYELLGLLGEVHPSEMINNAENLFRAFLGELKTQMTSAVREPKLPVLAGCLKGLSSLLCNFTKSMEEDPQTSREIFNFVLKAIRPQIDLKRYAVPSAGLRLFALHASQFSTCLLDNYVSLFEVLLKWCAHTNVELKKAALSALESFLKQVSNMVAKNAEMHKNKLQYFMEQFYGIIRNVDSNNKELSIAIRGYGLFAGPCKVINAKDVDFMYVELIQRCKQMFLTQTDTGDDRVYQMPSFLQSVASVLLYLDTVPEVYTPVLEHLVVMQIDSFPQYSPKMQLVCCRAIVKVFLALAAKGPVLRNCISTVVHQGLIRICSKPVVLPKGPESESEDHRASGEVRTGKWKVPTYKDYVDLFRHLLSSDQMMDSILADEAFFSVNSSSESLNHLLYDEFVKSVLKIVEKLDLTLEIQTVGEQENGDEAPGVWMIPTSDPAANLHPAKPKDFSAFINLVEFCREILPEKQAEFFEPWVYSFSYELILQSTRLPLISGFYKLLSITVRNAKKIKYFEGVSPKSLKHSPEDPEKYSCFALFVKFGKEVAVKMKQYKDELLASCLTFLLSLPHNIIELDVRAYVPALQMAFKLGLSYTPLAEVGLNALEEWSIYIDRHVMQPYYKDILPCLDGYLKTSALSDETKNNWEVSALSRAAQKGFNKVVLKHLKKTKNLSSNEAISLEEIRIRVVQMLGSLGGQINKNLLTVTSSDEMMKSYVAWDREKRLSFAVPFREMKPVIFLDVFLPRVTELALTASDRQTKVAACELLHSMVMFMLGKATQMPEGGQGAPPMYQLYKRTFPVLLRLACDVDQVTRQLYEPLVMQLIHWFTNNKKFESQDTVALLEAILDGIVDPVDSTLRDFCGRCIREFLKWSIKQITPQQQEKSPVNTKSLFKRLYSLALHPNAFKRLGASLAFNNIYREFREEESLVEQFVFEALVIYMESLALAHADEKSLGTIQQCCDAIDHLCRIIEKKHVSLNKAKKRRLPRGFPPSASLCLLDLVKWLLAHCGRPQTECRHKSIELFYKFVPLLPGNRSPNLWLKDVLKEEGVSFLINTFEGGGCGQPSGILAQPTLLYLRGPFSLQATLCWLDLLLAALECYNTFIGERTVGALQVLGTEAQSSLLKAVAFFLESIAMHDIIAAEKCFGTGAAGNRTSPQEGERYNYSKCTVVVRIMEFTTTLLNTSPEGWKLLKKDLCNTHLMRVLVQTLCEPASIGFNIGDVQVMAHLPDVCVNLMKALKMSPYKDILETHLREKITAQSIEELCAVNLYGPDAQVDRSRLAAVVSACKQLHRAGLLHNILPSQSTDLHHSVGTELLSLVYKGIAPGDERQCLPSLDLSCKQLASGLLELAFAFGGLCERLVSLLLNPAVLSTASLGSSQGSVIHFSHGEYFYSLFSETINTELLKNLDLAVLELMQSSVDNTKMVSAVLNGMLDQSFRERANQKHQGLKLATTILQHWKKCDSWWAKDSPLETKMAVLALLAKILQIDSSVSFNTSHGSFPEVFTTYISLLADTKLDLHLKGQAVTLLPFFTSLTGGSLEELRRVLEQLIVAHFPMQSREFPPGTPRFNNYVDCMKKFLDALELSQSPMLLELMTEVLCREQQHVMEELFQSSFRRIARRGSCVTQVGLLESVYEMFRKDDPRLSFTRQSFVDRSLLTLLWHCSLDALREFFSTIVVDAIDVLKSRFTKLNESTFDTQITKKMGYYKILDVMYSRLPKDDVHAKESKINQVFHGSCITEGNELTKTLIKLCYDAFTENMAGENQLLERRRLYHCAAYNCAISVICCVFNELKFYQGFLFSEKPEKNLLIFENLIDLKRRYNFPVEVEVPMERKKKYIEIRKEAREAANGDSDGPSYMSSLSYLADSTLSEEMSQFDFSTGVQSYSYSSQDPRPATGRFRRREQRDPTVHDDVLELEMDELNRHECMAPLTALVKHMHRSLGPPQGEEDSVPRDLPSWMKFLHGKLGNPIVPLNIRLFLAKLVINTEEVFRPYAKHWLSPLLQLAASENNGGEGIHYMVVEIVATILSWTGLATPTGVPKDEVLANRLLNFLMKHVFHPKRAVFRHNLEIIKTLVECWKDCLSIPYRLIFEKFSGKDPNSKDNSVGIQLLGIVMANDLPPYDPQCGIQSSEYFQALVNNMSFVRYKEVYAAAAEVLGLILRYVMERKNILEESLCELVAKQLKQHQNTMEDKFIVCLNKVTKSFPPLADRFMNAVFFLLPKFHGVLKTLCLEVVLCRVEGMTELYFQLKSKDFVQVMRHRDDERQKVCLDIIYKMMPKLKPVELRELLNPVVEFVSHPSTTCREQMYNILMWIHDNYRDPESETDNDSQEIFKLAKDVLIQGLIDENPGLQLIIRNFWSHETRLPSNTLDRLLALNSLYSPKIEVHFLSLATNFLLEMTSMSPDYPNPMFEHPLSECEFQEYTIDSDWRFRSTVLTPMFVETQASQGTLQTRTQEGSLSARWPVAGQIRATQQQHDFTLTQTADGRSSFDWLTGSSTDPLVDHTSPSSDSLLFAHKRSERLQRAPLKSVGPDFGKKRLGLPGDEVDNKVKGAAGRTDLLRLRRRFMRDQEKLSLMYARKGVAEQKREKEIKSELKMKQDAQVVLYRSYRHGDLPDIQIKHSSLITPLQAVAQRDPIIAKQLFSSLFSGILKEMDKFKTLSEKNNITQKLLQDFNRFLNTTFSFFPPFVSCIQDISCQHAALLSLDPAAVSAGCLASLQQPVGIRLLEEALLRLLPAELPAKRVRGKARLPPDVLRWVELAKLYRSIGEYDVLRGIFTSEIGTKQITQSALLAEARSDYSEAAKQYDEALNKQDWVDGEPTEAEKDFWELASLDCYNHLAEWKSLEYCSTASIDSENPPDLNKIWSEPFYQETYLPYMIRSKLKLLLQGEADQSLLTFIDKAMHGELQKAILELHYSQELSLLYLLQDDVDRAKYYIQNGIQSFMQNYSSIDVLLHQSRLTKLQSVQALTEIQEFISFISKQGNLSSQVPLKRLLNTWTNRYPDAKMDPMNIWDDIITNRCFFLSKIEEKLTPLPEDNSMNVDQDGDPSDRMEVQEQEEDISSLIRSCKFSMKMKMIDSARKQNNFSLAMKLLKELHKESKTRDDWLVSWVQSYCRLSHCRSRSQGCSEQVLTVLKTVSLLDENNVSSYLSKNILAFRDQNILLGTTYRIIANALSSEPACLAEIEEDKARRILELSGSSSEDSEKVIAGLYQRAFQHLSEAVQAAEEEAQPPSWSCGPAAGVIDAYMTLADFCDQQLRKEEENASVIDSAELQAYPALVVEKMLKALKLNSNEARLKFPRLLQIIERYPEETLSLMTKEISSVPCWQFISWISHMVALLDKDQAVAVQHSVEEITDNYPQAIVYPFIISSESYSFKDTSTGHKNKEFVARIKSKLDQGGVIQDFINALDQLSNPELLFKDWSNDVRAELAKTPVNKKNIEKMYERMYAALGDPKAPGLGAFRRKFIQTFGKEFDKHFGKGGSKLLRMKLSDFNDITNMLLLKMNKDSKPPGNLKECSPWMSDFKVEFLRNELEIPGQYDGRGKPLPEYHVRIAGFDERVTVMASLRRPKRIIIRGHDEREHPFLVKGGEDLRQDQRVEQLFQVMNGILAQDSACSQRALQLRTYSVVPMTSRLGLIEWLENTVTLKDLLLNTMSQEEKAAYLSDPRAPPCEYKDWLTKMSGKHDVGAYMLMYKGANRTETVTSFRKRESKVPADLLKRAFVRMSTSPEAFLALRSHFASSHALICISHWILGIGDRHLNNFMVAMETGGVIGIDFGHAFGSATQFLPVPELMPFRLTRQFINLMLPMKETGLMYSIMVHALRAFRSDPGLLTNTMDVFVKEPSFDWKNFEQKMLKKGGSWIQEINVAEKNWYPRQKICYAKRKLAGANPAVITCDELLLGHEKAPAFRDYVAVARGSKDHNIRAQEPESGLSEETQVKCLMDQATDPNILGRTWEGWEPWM
assay: Inhibition of DNA-PK using EPPLSQEAFADLWKK as substrate after 5 mins by ADP-Glo kinase assay
A complete answer gives the number followed by the unit.

**Q:** Tell me reported IC50 for `O=c1nc(N2CCOCC2)oc2c(-c3ccccc3)cccc12` , tested with DNA-dependent protein kinase catalytic subunit (Homo sapiens, UniProt P78527).
**A:** 0.3 µM

**Q:** Form field - read-out: IC50; system: DNA-dependent protein kinase catalytic subunit (Homo sapiens, UniProt P78527); submitted item: `CN1CCN(CCOc2ccc3c(=O)nc(N4CCOCC4)oc3c2)CC1`
**A:** 6.8 µM

**Q:** Entry `O=c1nc(N(Cc2ccccn2)c2cccnc2)oc2c(OCc3ccccn3)cccc12` , system DNA-dependent protein kinase catalytic subunit (Homo sapiens, UniProt P78527): what IC50 was measured?
**A:** 7.8 µM

**Q:** Request - read-out IC50 | tested on DNA-dependent protein kinase catalytic subunit (Homo sapiens, UniProt P78527) | compound `Cc1c(OCCN2CCN(C)CC2)ccc2c(=O)nc(N3CCOCC3)oc12`
**A:** 0.5 µM

**Q:** Query for DNA-dependent protein kinase catalytic subunit (Homo sapiens, UniProt P78527): what IC50 does the record show for `Cc1cccc2c(=O)nc(N(Cc3ccccn3)c3cccnc3)oc12` ?
**A:** 25.2 µM

**Q:** Provide value of IC50 for this record tested with DNA-dependent protein kinase catalytic subunit (Homo sapiens, UniProt P78527): `Cc1c(OCc2ccccn2)ccc2c(=O)nc(N3CCOCC3)oc12`
**A:** 1.3 µM
